Test system: HT29 colon
Assay: NCI-60 one-dose screen, 48 h (100 = growth as untreated, 0 = no growth, -100 = all killed)
Conditions: 10 µM unless noted
This is part of a sample that, as a whole, favours compounds with a hit. Of some 83,000 tested, about 20% had one in any assay.

{"COMPOUND": "O=C(/C=C/c1ccccc1)c1ccc(O)c(CN2CCN(c3cc4c(cc3F)c(=O)c(C(=O)O)cn4C3CC3)CC2)c1", "UNIT_TEXT": "%", "growth": 5.56}
{"COMPOUND": "Nc1ccc(-c2cc3c(NCc4ccccc4)ncnc3s2)cc1", "UNIT_TEXT": "%", "growth": 103}
{"COMPOUND": "CCn1c(Cc2ccccc2Nc2c(Cl)cccc2Cl)nnc1SCC(=O)NN1C(=O)/C(=C/c2cc(OC)c(O)c(OC)c2)SC1=S", "UNIT_TEXT": "%", "growth": 25.5}
{"COMPOUND": "O=C(NCCN1CCOCC1)Nc1ccc(-c2cc3c(Nc4ccc(Oc5cccc(C(F)(F)F)c5)c(Cl)c4)ncnc3s2)cc1", "UNIT_TEXT": "%", "growth": -69.2}
{"COMPOUND": "CSc1nc(Nc2cccc(NC(=O)CCl)c2)c(C#N)c(-c2cccc([N+](=O)[O-])c2)n1", "UNIT_TEXT": "%", "growth": 17.7}
{"COMPOUND": "O=C(Cc1ccc(/C=C/C(=O)c2ncc[nH]2)cc1)Nc1ccccc1", "UNIT_TEXT": "%", "growth": 4.83}
{"COMPOUND": "COc1cc(/C=C/C(=O)Nc2cccnc2Nc2ccc(F)cc2)cc(OC)c1OC", "UNIT_TEXT": "%", "growth": 91.2}
{"COMPOUND": "COc1ccc(/C=C\\c2cc(OC)c(OC)c(OC)c2)cc1OC(=O)c1cccc(Cn2cc(CCOC(=O)[C@H](N)Cc3cn(C)c4ccccc34)nn2)c1", "UNIT_TEXT": "%", "growth": 8.6}
{"COMPOUND": "COc1ccc(-n2nc(C)c3c(Oc4ccc(NC(=O)Nc5c(Cl)cccc5Cl)cc4)ncnc32)cc1", "UNIT_TEXT": "%", "growth": 107}
{"COMPOUND": "CCOC(=O)c1c(C)oc2ncnc(N3CCN(C(=S)Nc4ccccc4)CC3)c12", "UNIT_TEXT": "%", "growth": 102}
{"COMPOUND": "O=C(CN1CCCCC1)Nc1ccc2oc(=O)ccc2c1", "UNIT_TEXT": "%", "growth": 104}
{"COMPOUND": "C#CC(F)(F)[C@]1(O)CC[C@H]2[C@@H]3CCC4=CC(=O)CCC4=C3[C@@H](c3ccc(C4CC4)cc3)C[C@@]21C", "UNIT_TEXT": "%", "growth": -63.9}
{"COMPOUND": "O=C(Cn1cccc(Nc2ccccc2)c1=O)Nc1ccccc1", "UNIT_TEXT": "%", "growth": 106}
{"COMPOUND": "Cc1nn(-c2cc(=O)[nH]c3ccccc23)c(N)c1C#N", "UNIT_TEXT": "%", "growth": 107}
{"COMPOUND": "Cc1nc2c3c(-c4ccccc4)c(-c4ccccc4)oc3ncn2n1", "UNIT_TEXT": "%", "growth": 95.8}
{"COMPOUND": "CCc1nc(N)nc(N)c1C#CC(C)c1cc(-c2ccnc(C)c2)c2oc(C)nc2c1 (centres undefined)", "UNIT_TEXT": "%", "growth": 6.46}
{"COMPOUND": "NC(=O)c1cc(Cl)ccc1NC(=O)/C=C/c1ccccc1", "UNIT_TEXT": "%", "growth": 8.83}
{"COMPOUND": "COc1cc(/C=C/C(=O)c2c(C)oc3nc[nH]c(=O)c23)cc(OC)c1OC", "UNIT_TEXT": "%", "growth": 90.7}
{"COMPOUND": "CCOc1ccc(-n2nc(C(=O)Nc3cc(OC)c(OC)c(OC)c3)nc2-c2cc(OC)c(OC)c(OC)c2)cc1", "UNIT_TEXT": "%", "growth": 84.6}
